Where these numbers come from: ChEMBL document CHEMBL3046887

# System: Bacillus subtilis
# measurement.notes: Antibacterial activity against Bacillus subtilis MTCC 2397 at 10 ug/well after 24 hr by agar well diffusion method
# Type: functional
# stated.conditions: MTCC 2397, 24 h, read-out: DIZ
measure: zone of inhibition at 10 µg/disc (mm)
Give a bare numeral; the unit mm is implied.

For orientation, consider the following solved cases.
1. O=C(O)c1cc(-c2ccccc2)nc2cc(N3CCNCC3)ccc12: 2
2. O=C(O)c1cc(-c2ccccc2)nc2cc(Nc3ccc([N+](=O)[O-])cc3)ccc12: 5
3. COc1ccc(Nc2ccc3c(C(=O)O)cc(-c4ccccc4)nc3c2)cc1: 4

Query: Output reported zone of inhibition at 10 µg/disc of the compound NS(=O)(=O)c1ccc(Nc2ccc3c(C(=O)O)cc(-c4ccccc4)nc3c2)cc1 on Bacillus subtilis.
Result: 5

Query: Enter zone of inhibition at 10 µg/disc (test system Bacillus subtilis) for O=C(O)c1cc(-c2ccccc2)nc2cc(Nc3ccncc3)ccc12
Result: 5

Query: Please look at NC(=O)Nc1ccc2c(C(=O)O)cc(-c3ccccc3)nc2c1 and tell me its recorded zone of inhibition at 10 µg/disc on Bacillus subtilis.
Result: 9

Query: Write down measured zone of inhibition at 10 µg/disc (Bacillus subtilis) for this compound. O=C(O)c1cc(-c2ccccc2)nc2cc(Cl)ccc12
Result: 5

Query: For Bacillus subtilis, give zone of inhibition at 10 µg/disc of the listed compound: CC1COc2c(N3CCN(C)CC3)c(F)cc3c(=O)c(C(=O)O)cn1c23 (stereo unspecified)
Result: 17
